Hey, just so you know, these numbers are from ChEMBL document CHEMBL5055683.

Reported MIC50 is given for each of the following molecules.
test system: Mycobacterium tuberculosis H37Rv; assay: Antimycobacterial activity against Mycobacterium tuberculosis H37Rv infected in human THP-1 macrophages assessed as reduction in microbial growth incubated for 72 hrs; format: functional
Numeric only. Scale: µM

CCCCCCOC(=O)[C@H](Cc1c[nH]c2ccccc12)NC(=O)N[C@@H](CC1CCCCC1)C(=O)N[C@H](C(=O)NC[C@H]1C[C@@H](O)[C@H](n2ccc(=O)[nH]c2=O)O1)[C@H](C)N(C)C(=O)CN : 9.5

MIC50 measured on C[C@@H]([C@H](NC(=O)[C@H](Cc1ccc2ccccc2c1)NC(=O)N[C@@H](Cc1c[nH]c2ccccc12)C(=O)NCC(C)(C)C)C(=O)NC[C@H]1C[C@@H](O)[C@H](n2ccc(=O)[nH]c2=O)O1)N(C)C(=O)CN = 1.2
